Experiment: 14-day oral gavage toxicokinetic study in rats
Assay type: in vivo
Settings: female, rat, plasma, po, 5 mg/kg, Mean Compound 1 Plasma Concentration, rats, oral 5 mg/kg, Day 14, 2 h, Female
Method: Plasma was obtained from blood samples collected from rats in a composite sampling scheme, with 3 samples collected per sex, per dose, at each target collection time, as illustrated in Table 21 to Table 25. […] The following parameters were determined: […] A value of 0 ng/mL was assigned to all values below the lower limit of quantitation (BLQ, <10.0 ng/mL). […] CL: Clearance (L/h/kg), calculated as the dose divided by AUC(0-t). […] Cmax/Dose: Normalized Cmax, calculated as Cmax divided by total dose. […]
quantity measured: concentration at 2 h
Your answer should be a number followed by the unit of measure.

Query :: Which concentration at 2 h value is on record for CN1CCN(c2ccc(Nc3ncc4cc5n(c4n3)C3(CCCCC3)CNC5=O)nc2)CC1 [Compound 1] ?
Result :: 493 ng/mL

---

experiment: Compound 1 PK dosed Days 1-5 with topotecan; format: in vivo, human; settings: human, plasma, intravenous, 200 mg/m^2 with Topotecan 1.25 mg/m^2 (Cohort 2), Day 1, Mean; read-out: AUCinf
quantity measured: AUC(0-inf) (ng·h/mL)
Give just the numeric value; ng·h/mL need not be written.

Query :: Which AUC(0-inf) value is on record for CN1CCN(c2ccc(Nc3ncc4cc5n(c4n3)C3(CCCCC3)CNC5=O)nc2)CC1 [Compound 1] ?
Result :: 2490

---

test: 14-day oral gavage toxicokinetic study in rats; format: in vivo; conditions: female, rat, plasma, po, 2 mg/kg, Compound 1 Plasma Concentration, rats, Female, Day 1, 2 h; daily oral 2 mg/kg (Group 7); individual animals
quantity measured: concentration at 2 h (ng/mL)
Give just the numeric value; ng/mL need not be written.

Query :: Which concentration at 2 h value is on record for "CN1CCN(c2ccc(Nc3ncc4cc5n(c4n3)C3(CCCCC3)CNC5=O)nc2)CC1" ?
Result :: 216

---

experiment: Topotecan PK following Compound 1 infusion; assay type: in vivo, human; settings: human, plasma, intravenous, Topotecan 0.75 mg/m^2 (Cohort 3) with Compound 1 200 mg/m^2, Day 4, individual subjects; read-out: t½ (converted)
quantity measured: half-life (h)
Give just the numeric value; h need not be written.

Query :: Which half-life value is on record for "CC[C@@]1(O)C(=O)OCc2c1cc1n(c2=O)Cc2cc3c(CN(C)C)c(O)ccc3nc2-1.Cl" ?
Result :: 4.63

---

assay: 14-day oral gavage toxicokinetic study in rats; type: in vivo; details: female, rat, plasma, po, 5 mg/kg, Mean Compound 1 Plasma Concentration, rats, oral 5 mg/kg, Day 14, 1 h, Female
quantity measured: concentration at 1 h (ng/mL)
Give just the numeric value; ng/mL need not be written.

Query :: Which concentration at 1 h value is on record for CN1CCN(c2ccc(Nc3ncc4cc5n(c4n3)C3(CCCCC3)CNC5=O)nc2)CC1 [Compound 1] ?
Result :: 519

---

test: 14-day oral gavage toxicokinetic study in rats; assay type: in vivo; details: female, rat, plasma, po, 5 mg/kg, Mean Compound 1 Plasma Concentration, rats, oral 5 mg/kg, Day 14, 4 h, Female
quantity measured: concentration at 4 h (ng/mL)
Give just the numeric value; ng/mL need not be written.

Query :: Which concentration at 4 h value is on record for CN1CCN(c2ccc(Nc3ncc4cc5n(c4n3)C3(CCCCC3)CNC5=O)nc2)CC1 [Compound 1] ?
Result :: 439

---

experiment: 14-day oral gavage toxicokinetic study in rats; type: in vivo; details: female, rat, plasma, po, 30 mg/kg, Mean Compound 1 Plasma Concentration, rats, oral 30 mg/kg, Day 1, 0.5 h, Female
quantity measured: concentration at 0.5 h
Your answer should be a number followed by the unit of measure.

Query :: Which concentration at 0.5 h value is on record for CN1CCN(c2ccc(Nc3ncc4cc5n(c4n3)C3(CCCCC3)CNC5=O)nc2)CC1 [Compound 1] ?
Result :: 2.16 µg/mL

---

experiment: 14-day oral gavage toxicokinetic study in rats; format: in vivo; details: female, rat, plasma, po, 15 mg/kg, oral 15 mg/kg, Study Day 1, Female
quantity measured: AUC(0-t) (ng·h/mL)
Give just the numeric value; ng·h/mL need not be written.

Query :: Which AUC(0-t) value is on record for CN1CCN(c2ccc(Nc3ncc4cc5n(c4n3)C3(CCCCC3)CNC5=O)nc2)CC1 [Compound 1] ?
Result :: 23200

---

experiment: Compound 1 PK dosed Days 1-3 with etoposide and carboplatin; assay type: in vivo, human; conditions: human, plasma, intravenous, Day 3; range; read-out: concentration at 24.5 hours after dosing, range
quantity measured: concentration at 24.5 h

Query :: Which concentration at 24.5 h value is on record for CN1CCN(c2ccc(Nc3ncc4cc5n(c4n3)C3(CCCCC3)CNC5=O)nc2)CC1 [Compound 1] ?
Result :: 11.5 to 34.5 ng/mL

---

assay: 14-day oral gavage toxicokinetic study in rats; assay type: in vivo; conditions: female, rat, plasma, po, 5 mg/kg, Mean Compound 1 Plasma Concentration, rats, oral 5 mg/kg, Day 14, 24 h, Female
quantity measured: concentration at 24 h (ng/mL)
Give just the numeric value; ng/mL need not be written.

Query :: Which concentration at 24 h value is on record for "CN1CCN(c2ccc(Nc3ncc4cc5n(c4n3)C3(CCCCC3)CNC5=O)nc2)CC1" ?
Result :: 19.2

---

test: 14-day oral gavage toxicokinetic study in rats; type: in vivo; settings: male, rat, plasma, po, 5 mg/kg, Mean Compound 1 Plasma Concentration, rats, oral 5 mg/kg, Day 1, 12 h, Male
quantity measured: concentration at 12 h (ng/mL)
Give just the numeric value; ng/mL need not be written.

Query :: Which concentration at 12 h value is on record for "CN1CCN(c2ccc(Nc3ncc4cc5n(c4n3)C3(CCCCC3)CNC5=O)nc2)CC1" ?
Result :: 195

---

assay: Compound 1 PK dosed Days 1-5 with topotecan; type: in vivo, human; details: human, plasma, intravenous, 200 mg/m^2 with Topotecan 0.75 mg/m^2 (Cohort 3), Day 4, Geometric Mean; read-out: t½ (converted)
quantity measured: half-life (h)
Give just the numeric value; h need not be written.

Query :: Which half-life value is on record for CN1CCN(c2ccc(Nc3ncc4cc5n(c4n3)C3(CCCCC3)CNC5=O)nc2)CC1 [Compound 1] ?
Result :: 8.69

---

test: 14-day oral gavage toxicokinetic study in rats; assay type: in vivo; details: male, rat, plasma, po, 5 mg/kg, Individual Compound 1 Plasma Concentration, rats, daily oral 5 mg/kg, Day 1, Male, 4 h
quantity measured: concentration at 4 h (ng/mL)
Give just the numeric value; ng/mL need not be written.

Query :: Which concentration at 4 h value is on record for CN1CCN(c2ccc(Nc3ncc4cc5n(c4n3)C3(CCCCC3)CNC5=O)nc2)CC1 [Compound 1] ?
Result :: 562

---

test: 14-day oral gavage toxicokinetic study in rats; type: in vivo; details: male, rat, plasma, po, 30 mg/kg, Mean Compound 1 Plasma Concentration, rats, oral 30 mg/kg, Day 14, 12 h, Male
quantity measured: concentration at 12 h (ng/mL)
Give just the numeric value; ng/mL need not be written.

Query :: Which concentration at 12 h value is on record for "CN1CCN(c2ccc(Nc3ncc4cc5n(c4n3)C3(CCCCC3)CNC5=O)nc2)CC1" ?
Result :: 1300

---

assay: 14-day oral gavage toxicokinetic study in rats; assay type: in vivo; details: female, rat, plasma, po, 15 mg/kg, Individual Compound 1 Plasma Concentration, rats, daily oral 15 mg/kg, Day 1, Female, 2 h
quantity measured: concentration at 2 h (ng/mL)
Give just the numeric value; ng/mL need not be written.

Query :: Which concentration at 2 h value is on record for "CN1CCN(c2ccc(Nc3ncc4cc5n(c4n3)C3(CCCCC3)CNC5=O)nc2)CC1" ?
Result :: 1820

---

Experiment: 14-day oral gavage toxicokinetic study in rats
Format: in vivo
Settings: male, rat, plasma, po, 30 mg/kg, Mean Compound 1 Plasma Concentration, rats, oral 30 mg/kg, Day 1, […], Male
Protocol: Plasma was obtained from blood samples collected from rats in a composite sampling scheme, with 3 samples collected per sex, per dose, at each target collection time, as illustrated in Table 21 to Table 25. […] The following parameters were determined: […] A value of 0 ng/mL was assigned to all values below the lower limit of quantitation (BLQ, <10.0 ng/mL). […] CL: Clearance (L/h/kg), calculated as the dose divided by AUC(0-t). […] Cmax/Dose: Normalized Cmax, calculated as Cmax divided by total dose. […]
quantity measured: concentration at […]

Query :: Which concentration at […] value is on record for CN1CCN(c2ccc(Nc3ncc4cc5n(c4n3)C3(CCCCC3)CNC5=O)nc2)CC1 [Compound 1] ?
Result :: 208 ng/mL
